# experimentalSystem: Estrogen receptor (Homo sapiens)
# Sequence (P03372 whole entry): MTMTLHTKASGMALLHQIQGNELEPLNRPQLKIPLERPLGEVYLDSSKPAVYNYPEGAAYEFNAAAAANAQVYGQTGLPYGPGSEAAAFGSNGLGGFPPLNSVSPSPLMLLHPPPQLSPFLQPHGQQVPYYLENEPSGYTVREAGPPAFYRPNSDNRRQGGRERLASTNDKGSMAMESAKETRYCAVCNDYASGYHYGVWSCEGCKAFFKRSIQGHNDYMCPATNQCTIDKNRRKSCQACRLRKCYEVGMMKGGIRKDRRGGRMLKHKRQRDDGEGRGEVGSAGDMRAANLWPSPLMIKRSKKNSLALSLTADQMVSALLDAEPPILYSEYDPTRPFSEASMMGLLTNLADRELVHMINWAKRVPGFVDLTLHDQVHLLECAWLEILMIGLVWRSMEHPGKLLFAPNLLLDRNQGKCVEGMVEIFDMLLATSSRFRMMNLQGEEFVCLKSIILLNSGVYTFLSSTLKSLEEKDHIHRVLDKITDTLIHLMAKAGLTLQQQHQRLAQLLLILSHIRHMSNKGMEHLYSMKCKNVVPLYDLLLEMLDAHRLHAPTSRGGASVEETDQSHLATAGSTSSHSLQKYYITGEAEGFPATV
quantityKind: IC50

The cases that follow already have their IC50 on record.
smiles | observed
CCN(CC)CCOc1ccc(C(=C(C#N)c2ccccc2)c2ccc(OCCN(CC)CC)cc2)cc1 | > 10 µM
CN1CCN(CCOc2ccc(C(=C(C#N)c3ccccc3)c3ccc(OCCN4CCN(C)CC4)cc3)cc2)CC1 | > 10 µM

Field: next compound
Input: Give IC50 (Estrogen receptor (Homo sapiens)) of the following compound: CN(C)CCOc1ccc(C(=C(C#N)c2cccs2)c2ccc(OCCN(C)C)cc2)cc1
Output: > 10 µM

---

In this section we review reported inhibition values for a set of molecules.
# experimentalSystem: Protein kinase C (PKC) (Homo sapiens) (UniProt O94806+P41743+P17252+P05129+Q05655+P05771+Q05513+Q02156+P24723+Q15139+Q04759)
# runDescription: Inhibition of PKC in human SH-SY5Y cells assessed as inhibition of PMA-stimulated MARCKS phosphorylation at 3 uM preincubated for 1 hr followed by PMA-stimulation for 15 mins by Western blot analysis relative to control
# Type: cell-based
Kindly answer with a numeric value in %, unit omitted.

smiles | scaleUnit | observed
N#C/C(=C(/c1ccccc1)c1ccc(OCCN2CCOCC2)cc1)c1ccccc1 | % | 37
CN(C)CCOc1ccc(C(=C(C#N)c2ccccc2)c2ccccc2)cc1 | % | 22
CN1CCN(CCOc2ccc(C(=C(C#N)c3ccccc3)c3ccc(OCCN4CCN(C)CC4)cc3)cc2)CC1 | % | 83
CCN(CC)CCOc1ccc(C(=C(C#N)c2ccccc2)c2ccc(OCCN(CC)CC)cc2)cc1 | % | 12
N#CC(=C(c1ccc(OCCN2CCOCC2)cc1)c1ccc(OCCN2CCOCC2)cc1)c1ccccc1 | % | 62

Input: Query: inhibition; subject: N#C/C(=C(\c1ccccc1)c1ccc(OCCN2CCOCC2)cc1)c1ccccc1
Output: 43

Input: Now give it for CN(C)CCOc1ccc(C(=C(C#N)c2cccs2)c2ccc(OCCN(C)C)cc2)cc1 too.
Output: 39

---

# experimentalSystem: Protein kinase C (PKC) (Homo sapiens) (UniProt O94806+P41743+P17252+P05129+Q05655+P05771+Q05513+Q02156+P24723+Q15139+Q04759)
# runDescription: Inhibition of PKC in human SH-SY5Y cells assessed as inhibition of PMA-stimulated MARCKS phosphorylation at 10 uM preincubated for 1 hr followed by PMA-stimulation for 15 mins by Western blot analysis relative to control
# Format: cell-based
In this section we review reported inhibition values for a set of compounds.
Kindly answer with a numeric value in %, unit omitted.

The cases that follow already have their inhibition on record.
smiles | inhibition [%]
CCN(CC)CCOc1ccc(C(=C(C#N)c2ccccc2)c2ccc(OCCN(CC)CC)cc2)cc1 | 68
CN(C)CCOc1ccc(C(=C(C#N)c2ccccc2)c2ccccc2)cc1 | 67
N#C/C(=C(/c1ccccc1)c1ccc(OCCN2CCOCC2)cc1)c1ccccc1 | 70
CN(C)CCOc1ccc(C(=C(C#N)c2cccs2)c2ccc(OCCN(C)C)cc2)cc1 | 68
CN1CCN(CCOc2ccc(C(=C(C#N)c3ccccc3)c3ccc(OCCN4CCN(C)CC4)cc3)cc2)CC1 | 78
N#C/C(=C(\c1ccccc1)c1ccc(OCCN2CCOCC2)cc1)c1ccccc1 | 57

Field: next compound
Input: Query: inhibition; subject: N#CC(=C(c1ccc(OCCN2CCOCC2)cc1)c1ccc(OCCN2CCOCC2)cc1)c1ccccc1
Output: 72
